Biological target: progesterone receptor (PR) (Homo sapiens)
Construct: endogenous in cells; host or cells: T47D cells
Assay: T47D cell alkaline phosphatase assay
Format: cell-based
Details: T47D; read-out: Alk. Phos. % inh @ 3 μM
# cutoff 60% applies to inhibition at 3 µM; >= gives condition met, < gives condition not met

Q: Can CC1(C)C/C(=N\O)c2ccc(-c3cc(Cl)cc(Cl)c3)cc21 [Example 39] be said to have inhibition at 3 µM at or above 60%?
Ans: condition not met

Q: Can CC1(C)C/C(=N\O)c2ccc(-c3cccc(Cl)c3)cc21 [Example 36] be said to have inhibition at 3 µM at or above 60%?
Ans: condition met

Q: Can Cc1ccc(-c2ccc3c(c2)C(C)(C)C/C3=N\O)cc1 [Example 34] be said to have inhibition at 3 µM at or above 60%?
Ans: condition met

Q: Can Cc1cccc(-c2ccc3c(c2)C(C)(C)C/C3=N\O)c1 [Example 37] be said to have inhibition at 3 µM at or above 60%?
Ans: condition met

Q: Can CC1(C)C/C(=N\O)c2ccc(-c3ccccc3Cl)cc21 [Example 40] be said to have inhibition at 3 µM at or above 60%?
Ans: condition met

Q: Can CC1(C)C/C(=N\O)c2ccc(-c3ccc(Cl)cc3)cc21 [Example 33] be said to have inhibition at 3 µM at or above 60%?
Ans: condition met

Q: Can CC1(C)C/C(=N\O)c2ccc(-c3cccc(Cl)c3Cl)cc21 [Example 42] be said to have inhibition at 3 µM at or above 60%?
Ans: condition met

Q: Can COc1cccc(-c2ccc3c(c2)C(C)(C)C/C3=N\O)c1 [Example 38] be said to have inhibition at 3 µM at or above 60%?
Ans: condition not met

Q: Can COc1ccc(-c2ccc3c(c2)C(C)(C)C/C3=N\O)cc1 [Example 35] be said to have inhibition at 3 µM at or above 60%?
Ans: condition met

====

Target: progesterone receptor (PR) (Homo sapiens)
Construct: endogenous in cells; host or cells: T47D cells
Sequence (P06401 1-933): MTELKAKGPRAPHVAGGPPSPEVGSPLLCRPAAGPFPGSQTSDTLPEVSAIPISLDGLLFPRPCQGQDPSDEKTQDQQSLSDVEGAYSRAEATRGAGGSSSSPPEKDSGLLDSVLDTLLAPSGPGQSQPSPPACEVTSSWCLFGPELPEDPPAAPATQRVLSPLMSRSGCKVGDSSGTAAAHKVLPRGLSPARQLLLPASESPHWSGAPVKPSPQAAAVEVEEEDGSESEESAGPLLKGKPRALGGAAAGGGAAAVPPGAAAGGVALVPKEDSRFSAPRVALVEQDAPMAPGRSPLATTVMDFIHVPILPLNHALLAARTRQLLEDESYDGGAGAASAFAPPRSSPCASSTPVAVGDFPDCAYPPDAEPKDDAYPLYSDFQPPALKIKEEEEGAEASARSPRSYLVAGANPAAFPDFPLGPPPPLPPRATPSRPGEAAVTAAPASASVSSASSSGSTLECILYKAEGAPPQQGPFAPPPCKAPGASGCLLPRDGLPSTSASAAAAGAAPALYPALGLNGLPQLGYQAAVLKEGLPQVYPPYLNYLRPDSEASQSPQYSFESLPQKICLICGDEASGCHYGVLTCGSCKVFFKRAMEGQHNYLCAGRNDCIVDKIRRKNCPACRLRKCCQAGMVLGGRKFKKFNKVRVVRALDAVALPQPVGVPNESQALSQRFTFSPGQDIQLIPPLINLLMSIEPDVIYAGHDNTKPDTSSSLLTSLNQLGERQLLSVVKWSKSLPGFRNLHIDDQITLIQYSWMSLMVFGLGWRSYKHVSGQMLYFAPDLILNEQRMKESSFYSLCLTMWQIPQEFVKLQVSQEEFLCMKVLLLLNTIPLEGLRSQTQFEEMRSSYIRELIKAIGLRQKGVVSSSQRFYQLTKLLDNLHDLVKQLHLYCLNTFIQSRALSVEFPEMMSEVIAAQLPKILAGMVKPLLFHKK
Experiment: T47D cell alkaline phosphatase assay
Format: cell-based
Conditions: read-out: Alk. Phos. IC50
Protocol: (i) Purpose: To identify progestins or antiprogestins by determining a compound's effect on alkaline phosphatase activity in T47D cells. […] Square root-transformed data were used for analysis of variance and nonlinear dose response curve fitting for both agonist and antagonist modes. […] EC50 or IC50 values were calculated from the retransformed values. […]
reported endpoint: pIC50
In textbook form, pIC50 equals minus log to base ten of the concentration in mol/L.

Q: // fetch pIC50 given entry CC1C/C(=N\O)c2ccc(-c3ccc(C#N)n3C)cc21 (centres unmarked) [Example 3]
Ans: 7.19

Q: // fetch pIC50 given entry CC1(C)C/C(=N\O)c2ccc(-c3ccc(Cl)c(Cl)c3)cc21 [Example 41]
Ans: 6.34

Q: // fetch pIC50 given entry Cn1c(C#N)ccc1-c1ccc2c(c1)CCC/C2=N\O [Example 15]
Ans: 7.49
